System: 521955-158-R6-J3-PDC complex spheroid growth, % test/control;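 also: spheroids exposed to compounds for 7 days; 100% = DMSO vehicle control wells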
Experiment: Anticancer human tumor 521955-158-R6-J3-PDC patient-derived pancreatic carcinoma cell line growth inhibition [Asc]
Conditions: second compound 1 µM; first compound 0.00949 µM; active compounds read low
Overview of reported viability, T/C across a group of molecules:
Field format: number, assumed %, no unit text.

// known answers, use as guide
| molecule | viability, T/C [%] |
| --- | --- |
| Cc1nc(N2CCC3(CC2)COC(C)C3N)c(CO)nc1Sc1ccnc(N)c1Cl (stereo not given) + CNC(C)C(=O)NC1CN(S(=O)(=O)c2cccc(S(=O)(=O)N3CCC4CCC(C(=O)NC(c5ccccc5)c5ccccc5)N4C(=O)C(NC(=O)C(C)NC)C3)c2)CCC2CCC(C(=O)NC(c3ccccc3)c3ccccc3)N2C1=O | 82.7 |
| CCN1C(C(=O)NC23CCC(C(=O)O)(CC2)CC3)C(c2cccc(Cl)c2F)C2(C(=O)Nc3cc(Cl)ccc32)C12CCCCC2 (stereo not given) + Cc1c(S(C)(=O)=O)c(-c2cc(F)cc(N3CCN(c4ccc(NS(=O)(=O)c5ccc(NC(CCN6CCC(C(=O)OCCCP(=O)(O)O)CC6)CSc6ccccc6)c(S(=O)(=O)C(F)(F)F)c5)cc4)CC3)c2)c(-c2ccc(Cl)cc2)n1C(C)C | 41.2 |
| NC(=O)C(=Cn1cnc(-c2cc(C(F)(F)F)cc(C(F)(F)F)c2)n1)c1cncnc1 + CNC(C)C(=O)NC1CN(S(=O)(=O)c2cccc(S(=O)(=O)N3CCC4CCC(C(=O)NC(c5ccccc5)c5ccccc5)N4C(=O)C(NC(=O)C(C)NC)C3)c2)CCC2CCC(C(=O)NC(c3ccccc3)c3ccccc3)N2C1=O | 70 |
| Cc1nc(N2CCC3(CC2)COC(C)C3N)c(CO)nc1Sc1ccnc(N)c1Cl (stereo not given) + Cc1c(S(C)(=O)=O)c(-c2cc(F)cc(N3CCN(c4ccc(NS(=O)(=O)c5ccc(NC(CCN6CCC(C(=O)OCCCP(=O)(O)O)CC6)CSc6ccccc6)c(S(=O)(=O)C(F)(F)F)c5)cc4)CC3)c2)c(-c2ccc(Cl)cc2)n1C(C)C | 26.3 |

Attention now shifts to the item below.
Exercise: Please give measured viability, T/C of the following entry: NC(=O)C(=Cn1cnc(-c2cc(C(F)(F)F)cc(C(F)(F)F)c2)n1)c1cncnc1 + Cc1c(S(C)(=O)=O)c(-c2cc(F)cc(N3CCN(c4ccc(NS(=O)(=O)c5ccc(NC(CCN6CCC(C(=O)OCCCP(=O)(O)O)CC6)CSc6ccccc6)c(S(=O)(=O)C(F)(F)F)c5)cc4)CC3)c2)c(-c2ccc(Cl)cc2)n1C(C)C
Solution: 34.6
